Molecular target: T1, GkDnaC R145K146A double mutant (Geobacillus kaustophilus HTA426, UniProt Q5KU75 1-454, R145A;K146A)
T1 sequence: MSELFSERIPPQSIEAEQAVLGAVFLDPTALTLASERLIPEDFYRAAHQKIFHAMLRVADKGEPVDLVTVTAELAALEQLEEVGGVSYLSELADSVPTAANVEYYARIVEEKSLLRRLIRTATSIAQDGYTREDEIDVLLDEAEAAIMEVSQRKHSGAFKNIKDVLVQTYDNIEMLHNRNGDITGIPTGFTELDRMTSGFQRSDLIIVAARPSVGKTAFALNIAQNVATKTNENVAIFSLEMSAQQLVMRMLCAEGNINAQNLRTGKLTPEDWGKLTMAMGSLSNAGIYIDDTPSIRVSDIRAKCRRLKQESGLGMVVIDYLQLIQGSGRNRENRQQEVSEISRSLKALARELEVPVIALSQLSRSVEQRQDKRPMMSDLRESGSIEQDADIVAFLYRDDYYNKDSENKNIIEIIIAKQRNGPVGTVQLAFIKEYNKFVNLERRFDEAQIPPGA
Assay: SPR
observable: Kd (µM)
Give the value in µM but do not write µM after it.

GET /values?readout=Kd&item= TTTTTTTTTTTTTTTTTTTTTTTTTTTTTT (ssDNA) [5'Bio-(dT)30] 27

The reported measurements were obtained from paper PMC2647316.
